Molecular target: mutated human 5HT2C receptor (AP-1) (Homo sapiens, UniProt P28335, S310K)
Construct: expressed in transfected cells; host or cells: COS7 cells, pCMV vector, transient
Sequence (P28335 33-458 S310K): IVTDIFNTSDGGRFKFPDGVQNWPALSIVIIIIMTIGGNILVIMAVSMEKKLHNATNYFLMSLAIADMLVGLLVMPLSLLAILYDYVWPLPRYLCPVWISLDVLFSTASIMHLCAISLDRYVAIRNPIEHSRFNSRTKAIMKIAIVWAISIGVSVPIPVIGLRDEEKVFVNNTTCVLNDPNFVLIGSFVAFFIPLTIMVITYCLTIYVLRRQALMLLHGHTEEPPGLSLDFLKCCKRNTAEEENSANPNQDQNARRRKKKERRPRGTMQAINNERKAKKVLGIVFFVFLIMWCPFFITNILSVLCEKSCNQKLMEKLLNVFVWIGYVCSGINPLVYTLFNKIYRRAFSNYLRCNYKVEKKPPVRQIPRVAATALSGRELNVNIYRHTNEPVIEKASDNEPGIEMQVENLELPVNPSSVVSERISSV
Test: Competitive binding assay, [3H]mesulergine, AP-1
Settings: Competitive Binding AP-1 ([3H]mesulergine) IC50 Value (μM), 1 nM [3H]mesulergine, COS7 membranes
value kind: IC50
Answer by giving the amount and then stating its unit.

Worked set:
* COc1ccc(OC(=O)Nc2cccc(-c3nn(C)cc3Br)c2)cc1 [Compound 116100] | 1.8 µM
* Cn1cc(Br)c(-c2cccc(NC(=O)c3cccs3)c2)n1 [Compound 116102] | 2.8 µM
* Cn1cc(Br)c(-c2cccc(NC(=O)c3ccc(Cl)cc3)c2)n1 [Compound 116120] | 1.2 µM

Now for another entry.
Request: Look up IC50: Cn1cc(Br)c(-c2cccc(NC(=O)NCc3ccc(OC(F)(F)F)cc3)c2)n1 [Compound 116115]
Response: 1.2 µM

Origin of the recorded values: patent US7754866B2
